This collection of values is drawn from patent US20240124432A1.

# Tested on: LOLPE
# PROTOCOL DETAILS: Pre-emergence biological efficacy
# Assay type: in vivo
# RUN CONDITIONS: Lolium perenne, 312 h, evaluated after 13 days, read-out: damage to plant (100=total damage to plant; 0=no damage to plant)
TEST READOUT: pest or weed control at 250 g/ha

pest or weed control at 250 g/ha value, target or system LOLPE, for CCOC(=O)C1(C)CC(c2cc(-c3nc(C)cnc3C)c(F)cc2Cl)=NO1 (centres unmarked) [Compound 1-787] : 20%

Query CCOC(=O)C1(C)CC(c2cc(-c3c(Cl)cc(C(F)(F)F)c[n+]3[O-])ccc2Cl)=NO1 (centres unmarked) [Compound 1-663] on LOLPE; pest or weed control at 250 g/ha returned: 50%

pest or weed control at 250 g/ha value, target or system LOLPE, for CCOC(=O)C1(C)CC(c2cc(-c3cc(Cl)cnc3F)c(F)cc2Cl)=NO1 (centres unmarked) [Compound 1-199] : 10%

Tested on LOLPE, the item CCOC(=O)C1(C)CC(c2cc(-c3ccnc(C(F)(F)F)c3)c(F)cc2Cl)=NO1 (centres unmarked) [Compound 1-499] showed pest or weed control at 250 g/ha equal to 20%

Result for CCOC(=O)C1(C)CC(c2cc(-c3cc(C(F)(F)F)cnc3F)c(F)cc2Cl)=NO1 (centres unmarked) [Compound 1-235] , tested on LOLPE, pest or weed control at 250 g/ha: 0%

Tested on LOLPE: CCOC(=O)C1(C)CC(c2cc(-c3cnc4ccccc4c3)c(F)cc2Cl)=NO1 (centres unmarked) [Compound 1-439] . Observed pest or weed control at 250 g/ha: 20%

Test item CCOC(=O)C1(C)CC(c2cc(-c3ccc(C(F)(F)F)nc3Cl)c(F)cc2Cl)=NO1 (centres unmarked) [Compound 1-655] ; LOLPE; reported pest or weed control at 250 g/ha was 40%

The recorded pest or weed control at 250 g/ha with LOLPE for CCOC(=O)C1(C)CC(c2cc(-c3cccnc3F)c(F)cc2Cl)=NO1 (centres unmarked) [Compound 1-211] was 0%

* * *

Hi there, I'd appreciate the recorded pest or weed control at 250 g/ha for every entry that follows.
# Tested on: EPHHL
# PROTOCOL DETAILS: Pre-emergence biological efficacy
# Assay type: in vivo
# RUN CONDITIONS: Euphorbia heterophylla, 312 h, evaluated after 13 days, read-out: damage to plant (100=total damage to plant; 0=no damage to plant)
Answer in %, number only, no unit symbol.

CCOC(=O)C1(C)CC(c2cc(-c3cnc(C)cn3)c(F)cc2Cl)=NO1 (centres unmarked) [Compound 1-739] yielded pest or weed control at 250 g/ha of 0

Query CC1(C(=O)O)CC(c2cc(-c3ncc(C(F)(F)F)cc3Cl)c(F)cc2Cl)=NO1 (centres unmarked) [Compound 1-101] yields pest or weed control at 250 g/ha of 100

Notebook: CCOC(=O)C1(C)CC(c2cc(-c3cccc(C(F)(F)F)n3)c(F)cc2Cl)=NO1 (centres unmarked) [Compound 1-43] , pest or weed control at 250 g/ha read as 0

Recorded result, CCOC(=O)C1(C)CC(c2cc(-c3ccc(OC)nn3)c(F)cc2Cl)=NO1 (centres unmarked) [Compound 1-703] , pest or weed control at 250 g/ha: 0

Memo: CCOC(=O)C1(C)CC(c2cc(-c3ncc(C#N)cc3Cl)c(F)cc2Cl)=NO1 (centres unmarked) [Compound 1-607] , reported pest or weed control at 250 g/ha: 50

# pest or weed control at 250 g/ha (molecule: CCOC(=O)C1(C)CC(c2cc(-c3ncc(Cl)cc3C(F)(F)F)c(F)cc2Cl)=NO1 (centres unmarked) [Compound 1-343] ) is 50

CCOC(=O)C1(C)CC(c2cc(-c3ncc(C(C)(F)F)cc3Cl)c(F)cc2Cl)=NO1 (centres unmarked) [Compound 1-595] yielded pest or weed control at 250 g/ha of 100

Lookup result for CCOC(=O)C1(C)CC(c2cc(-c3cc(C(F)(F)F)cnc3Br)c(F)cc2Cl)=NO1 (centres unmarked) [Compound 1-835] ; measured pest or weed control at 250 g/ha: 0

Form: molecule = CCOC(=O)C1(C)CC(c2cc(-c3cccnc3F)c(F)cc2Cl)=NO1 (centres unmarked) [Compound 1-211] ; pest or weed control at 250 g/ha = 0

Reported pest or weed control at 250 g/ha ( CCOC(=O)C1(C)CC(c2cc(-c3ccc(C(F)(F)F)nc3Cl)c(F)cc2Cl)=NO1 (centres unmarked) [Compound 1-655] ) = 90

Entry CCOC(=O)C1(C)CC(c2cc(-c3ccc(C(F)(F)F)cc3Cl)c(F)cc2Cl)=NO1 (centres unmarked) [Compound 1-7] ; pest or weed control at 250 g/ha = 0

pest or weed control at 250 g/ha recorded for this molecule, CCOC(=O)C1(C)CC(c2cc(-c3ncc(C)cc3Cl)c(F)cc2Cl)=NO1 (centres unmarked) [Compound 1-175] , is 60

Looking up CCOC(=O)C1(C)CC(c2cc(-c3cncc(Cl)c3)c(F)cc2Cl)=NO1 (centres unmarked) [Compound 1-271] , I see its pest or weed control at 250 g/ha listed as 0

Measured pest or weed control at 250 g/ha of CCOC(=O)C1(C)CC(c2cc(-c3cc(C(F)(F)F)cc(Cl)n3)c(F)cc2Cl)=NO1 (centres unmarked) [Compound 1-67] : 0

pest or weed control at 250 g/ha reported for this molecule CCOC(=O)C1(C)CC(c2cc(-c3cncc(C(F)(F)F)n3)c(F)cc2Cl)=NO1 (centres unmarked) [Compound 1-727] : 10

Kindly note the recorded pest or weed control at 250 g/ha for CCOC(=O)C1(C)CC(c2cc(-c3cnc4c(c3)OC(F)(F)O4)ccc2C#N)=NO1 (centres unmarked) [Compound 2-451] , which is 0

The reported pest or weed control at 250 g/ha of the molecule CCOC(=O)C1(C)CC(c2cc(-c3cnc(Cl)c(Cl)c3)c(F)cc2Cl)=NO1 (centres unmarked) [Compound 1-427] was 0

* * *

# Test system: IPOHE
# PROTOCOL DETAILS: Post-emergence biological efficacy
# Type: in vivo
# RUN CONDITIONS: Ipomoea hederacea, 312 h, evaluated after 13 days, read-out: damage to plant (100=total damage to plant; 0=no damage to plant)
# Experimental: Seeds of weeds and/or crops were sown in standard soil in pots. […] The test plants were then grown under controlled conditions in the glasshouse (at 24/18° C., day/night; 15 hours light; 50% humidity)and watered twice daily. After 13 days the test was evaluated (100=total damage to plant; 0=no damage to plant).
Task for the reader: assign each of the following molecules its reported pest or weed control at 250 g/ha.
Value expressed in %; do not type the unit.

pest or weed control at 250 g/ha value, target or system IPOHE, for CCOC(=O)C1(C)CC(c2cc(-c3ncc(C(F)(F)F)cc3Br)c(F)cc2Cl)=NO1 (centres unmarked) : 70

Test item CCOC(=O)C1(C)CC(c2cc(-c3ncc(C(F)(F)F)nc3Cl)c(F)cc2Cl)=NO1 (centres unmarked) ; IPOHE; reported pest or weed control at 250 g/ha was 70

Short answer on IPOHE for CCOC(=O)C1(C)CC(c2cc(-c3ncc(C#N)cc3Cl)c(F)cc2Cl)=NO1 (centres unmarked) , pest or weed control at 250 g/ha: 100

The reported IPOHE pest or weed control at 250 g/ha of CCOC(=O)C1(C)CC(c2cc(-c3nccnc3C(F)(F)F)c(F)cc2Cl)=NO1 (centres unmarked) is 60

Reading of pest or weed control at 250 g/ha for CCOC(=O)C1(C)CC(c2cc(-c3ncc(C(F)(F)F)cc3Cl)c(F)cc2Cl)=NO1 (centres unmarked) with IPOHE: 100

Record CCOC(=O)C1(C)CC(c2cc(-c3ncc(C(F)(F)F)cc3Cl)ccc2Cl)=NO1 (centres unmarked) ; system IPOHE; pest or weed control at 250 g/ha = 100

Fill in: IPOHE pest or weed control at 250 g/ha for CCOC(=O)C1(C)CC(c2cc(-c3ncc(Cl)cc3Cl)c(F)cc2Cl)=NO1 (centres unmarked) = 100

Sample CCOC(=O)C1(C)CC(c2cc(-c3ccc(C(F)(F)F)cn3)c(F)cc2Cl)=NO1 (centres unmarked) , system: IPOHE. Its pest or weed control at 250 g/ha is 100

Record CCOC(=O)C1(C)CC(c2cc(-c3ccc(C(F)(F)F)cc3Cl)c(F)cc2Cl)=NO1 (centres unmarked) has IPOHE pest or weed control at 250 g/ha equal to 90

Simply: CCOC(=O)C1(C)CC(c2cc(-c3ccnc(F)c3)c(F)cc2Cl)=NO1 (centres unmarked) , IPOHE, pest or weed control at 250 g/ha = 50

Value (pest or weed control at 250 g/ha, IPOHE) for record CCOC(=O)C1(C)CC(c2cc(-c3cnc(F)c(Cl)c3)c(F)cc2Cl)=NO1 (centres unmarked) = 50

The reported pest or weed control at 250 g/ha value, IPOHE, for CCOC(=O)C1(C)CC(c2cc(-c3ccccn3)c(F)cc2Cl)=NO1 (centres unmarked) reads 20

// returns pest or weed control at 250 g/ha for CCOC(=O)C1(C)CC(c2cc(-c3cnc4c(c3)OC(F)(F)O4)ccc2C#N)=NO1 (centres unmarked) with IPOHE; value = 30

# CCOC(=O)C1(C)CC(c2cc(-c3nc(C)cnc3C)c(F)cc2Cl)=NO1 (centres unmarked) with IPOHE: pest or weed control at 250 g/ha is 50

Note to self: pest or weed control at 250 g/ha of CCOC(=O)C1(C)CC(c2cc(-c3cc(F)cnc3Cl)c(F)cc2Cl)=NO1 (centres unmarked) with IPOHE was 100

Reported pest or weed control at 250 g/ha (IPOHE) for entry CCOC(=O)C1(C)CC(c2cc(-c3cc(Cl)cnc3F)c(F)cc2Cl)=NO1 (centres unmarked) is 100

Form field, pest or weed control at 250 g/ha with IPOHE, item CCOC(=O)C1(C)CC(c2cc(-c3ncc(Cl)cc3C(F)(F)F)c(F)cc2Cl)=NO1 (centres unmarked) : 100

Record for CCOC(=O)C1(C)CC(c2cc(-c3cncc(Cl)c3)c(F)cc2Cl)=NO1 (centres unmarked) under target or system IPOHE: pest or weed control at 250 g/ha reported as 100

Hey, IPOHE data for CCOC(=O)C1(C)CC(c2cc(-c3cc(Cl)ncc3OC)c(F)cc2Cl)=NO1 (centres unmarked) : pest or weed control at 250 g/ha came out at 60

The molecule CCOC(=O)C1(C)CC(c2cc(-c3cnc4ccc(C(F)(F)F)cc4n3)c(F)cc2Cl)=NO1 (centres unmarked) on IPOHE: pest or weed control at 250 g/ha was 10
